Each recorded value in this set is attributed to patent US20260043020A1.

Readings of TRF signal for 0.6 ug/mL Fab for the listed binders
- TGT: trypsin
- PROTOCOL: TRF ELISA, Fab on biotinylated trypsin
Write the value as a bare number.

What value of TRF signal for 0.6 ug/mL Fab has been reported for the following binder? KB_A11 Fab (Fab, V domains shown) VH: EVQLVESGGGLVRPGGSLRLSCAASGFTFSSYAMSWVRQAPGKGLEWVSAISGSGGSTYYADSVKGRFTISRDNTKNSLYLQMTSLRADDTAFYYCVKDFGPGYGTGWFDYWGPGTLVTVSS VL: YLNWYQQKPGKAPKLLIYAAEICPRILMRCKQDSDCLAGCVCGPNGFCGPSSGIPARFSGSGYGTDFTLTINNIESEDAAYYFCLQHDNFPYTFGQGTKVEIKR 48900

One more binder: KB_A02 Fab (Fab, V domains shown) VH: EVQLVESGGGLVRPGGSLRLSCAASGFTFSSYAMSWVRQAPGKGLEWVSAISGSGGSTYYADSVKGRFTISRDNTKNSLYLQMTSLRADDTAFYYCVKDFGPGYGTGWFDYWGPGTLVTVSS VL: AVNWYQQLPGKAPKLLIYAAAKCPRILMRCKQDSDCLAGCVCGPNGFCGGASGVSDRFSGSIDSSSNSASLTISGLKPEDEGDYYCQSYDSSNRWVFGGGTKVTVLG 93800

One more binder: KB_A10 Fab (Fab, V domains shown) VH: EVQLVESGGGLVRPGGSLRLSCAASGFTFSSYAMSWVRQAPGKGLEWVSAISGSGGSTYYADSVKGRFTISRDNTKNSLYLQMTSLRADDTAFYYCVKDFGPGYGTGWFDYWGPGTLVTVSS VL: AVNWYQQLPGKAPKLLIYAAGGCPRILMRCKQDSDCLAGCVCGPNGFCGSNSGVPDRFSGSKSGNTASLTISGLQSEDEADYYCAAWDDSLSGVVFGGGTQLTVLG 14600
